measuredOn: SK2-a channels (Rattus norvegicus, UniProt P0DP29+P70604)
protocolDetails: Potentiation of WT SK2-a channel currents, inside-out patch, TsA201 cells
metricName: EC50 (µM)
Answers are plain numbers, in µM.

Return EC50 measured with SK2-a channels (Rattus norvegicus, UniProt P0DP29+P70604) given this compound: `NC(=O)Nc1ccccc1` 1610
